# experimental.conditions: 293.15 K; 101.33 kPa; Liquid; Vibrating tube method
measurement.kind: mass density (kg/m3)
Give just the number in kg/m3; leave the unit off.

>  <compound>
CCCCCCCCCCCCCC[P+](CCCCCC)(CCCCCC)CCCCCC.Cc1ncc([N+](=O)[O-])[n-]1 [trihexyl(tetradecyl)phosphonium 2-methyl-5-nitroimidazolide]

>  <unit.string>
kg/m3

>  <mass density>
941.9

$$$$
>  <compound>
CC[P+](CC)(CC)COCCOC.O=S(=O)([N-]S(=O)(=O)C(F)(F)F)C(F)(F)F

>  <unit.string>
kg/m3

>  <mass density>
1364.8

$$$$
>  <compound>
CCCCCCCCCCCCCC[P+](CCCCCC)(CCCCCC)CCCCCC.O=S(=O)([N-]S(=O)(=O)C(F)(F)F)C(F)(F)F

>  <unit.string>
kg/m3

>  <mass density>
1068.8

$$$$
>  <compound>
CCCCCCn1cc[n+](C)c1.O=[N+]([O-])c1cn[n-]c1 [1-hexyl-3-methylimidazolium 4-nitropyrazolide]

>  <unit.string>
kg/m3

>  <mass density>
1126.6

$$$$
>  <compound>
CCCCCCCCCCCCCC[P+](CCCCCC)(CCCCCC)CCCCCC.O=[N+]([O-])c1c[n-]cn1 [trihexyl(tetradecyl)phosphonium 4-nitroimidazolide]

>  <unit.string>
kg/m3

>  <mass density>
943.1

$$$$

Turning to the following compound.
INPUT: I am curious: what mass density value has been reported for CCCCCCCCCC[P+](CC)(CC)CC.O=[N+]([O-])c1cn[n-]c1 [decyltriethylphosphonium 4-nitropyrazolide] ?
OUTPUT: 1013.9
